src = patent US20160318928A1

- TARGET_ENTITY: BRD4 (Homo sapiens, UniProt O60885)
- METHOD_SUMMARY: Time resolved fluorescence resonance energy transfer (TR-FRET) binding assay, BRD4 bromodomain
- CONDITION_DESCRIPTION: one of the FRET assays described
pIC50: −log10 of the molar value.
QUANTITY: pIC50

Field: example entries. Status: answers known.
Query: pIC50; subject: `CCCC(CCC)n1c2cc(-c3c(C)noc3C)cnc2c2ccc(C(C)(C)O)c(F)c21`
> 7.60

What value of measured pIC50 is listed for `Cc1nnn(C)c1-c1cnc2c3cc(C(=O)N4CC(F)C4)ccc3n([C@H](c3ccccc3)C3CCOCC3)c2c1` ?
> 8.30

Recorded pIC50 for `CCCC(CCC)n1c2cc(-c3c(C)nnn3C)cnc2c2ccc(C(C)(C)O)c(F)c21` , please?
> 8.30

I have this compound here, [2H]C([2H])([2H])c1nnn(C)c1-c1cnc2c3cc(F)c(C(C)(C)O)cc3n(C(c3ncccc3F)C3CCOCC3)c2c1 (single isomer, unassigned) , and I need its recorded pIC50.
> 8.30

Look at this compound and give its reported pIC50. `Cc1noc(C)c1-c1cnc2c3ccc(C(C)(C)O)cc3n(C(c3ccccc3)c3ccccc3)c2c1`
> 8.30

Continuing:
Which pIC50 is listed for [2H]C([2H])([2H])c1nnn(C)c1-c1cnc2c3ccc(S(C)(=O)=O)cc3n(C(c3ccc(F)cc3)C3CCOCC3)c2c1 (stereo not shown) ?
> 8.30

For the compound [2H]C([2H])([2H])c1nnn(C)c1-c1cnc2c3c(NS(=O)(=O)CC)ccc(S(C)(=O)=O)c3n(C(c3ccccc3)C3CCOCC3)c2c1 (stereo not shown) , what pIC50 is on record?
> 7.60

Query (compound): Cc1nnn(C)c1-c1cnc2c3ccc(C(C)(C)O)cc3n([C@@H](c3ccc(F)cc3)C3CCOCC3)c2c1 [Example 73] ; field requested: pIC50
> 8.30

Endpoint output: pIC50 of [2H]C([2H])([2H])c1nnn(C)c1-c1cnc2c3ccc(C(C)(C)O)cc3n(C(c3ccccc3F)C3CCOCC3)c2c1 (stereo not shown) . Value?
> 8.30

Would you kindly share the measured pIC50 for [2H]C([2H])([2H])c1nnn(C)c1-c1cnc2c3c(OC)cc(C(C)(C)O)cc3n(C(c3ccc(F)cc3)C3CCOCC3)c2c1 (stereo not shown) ?
> 8.30

Look up pIC50 for this compound: Cc1nnn(C)c1-c1cnc2c3ccc(S(C)(=N)=O)cc3n([C@H](c3ccccc3)C3CCOCC3)c2c1 (single isomer, unassigned) [Example 372]
> 8.30

Reported pIC50 for COc1cccnc1C(C1CCOCC1)n1c2cc(C(C)(C)O)ccc2c2ncc(-c3c(C)nnn3C)cc21 (stereo not shown) : what is it?
> 8.30

Record request: pIC50 value, item COCC(C1CCOCC1)n1c2cc(C(C)(C)O)ccc2c2ncc(-c3c(C)nnn3C)cc21 (single isomer, unassigned) [Example 397]
> 7.60
